measured on: nAChRs comprised of α4 and β2 subunits (Rattus norvegicus, UniProt P09483+P12390)
Sequence (P09483 31-630): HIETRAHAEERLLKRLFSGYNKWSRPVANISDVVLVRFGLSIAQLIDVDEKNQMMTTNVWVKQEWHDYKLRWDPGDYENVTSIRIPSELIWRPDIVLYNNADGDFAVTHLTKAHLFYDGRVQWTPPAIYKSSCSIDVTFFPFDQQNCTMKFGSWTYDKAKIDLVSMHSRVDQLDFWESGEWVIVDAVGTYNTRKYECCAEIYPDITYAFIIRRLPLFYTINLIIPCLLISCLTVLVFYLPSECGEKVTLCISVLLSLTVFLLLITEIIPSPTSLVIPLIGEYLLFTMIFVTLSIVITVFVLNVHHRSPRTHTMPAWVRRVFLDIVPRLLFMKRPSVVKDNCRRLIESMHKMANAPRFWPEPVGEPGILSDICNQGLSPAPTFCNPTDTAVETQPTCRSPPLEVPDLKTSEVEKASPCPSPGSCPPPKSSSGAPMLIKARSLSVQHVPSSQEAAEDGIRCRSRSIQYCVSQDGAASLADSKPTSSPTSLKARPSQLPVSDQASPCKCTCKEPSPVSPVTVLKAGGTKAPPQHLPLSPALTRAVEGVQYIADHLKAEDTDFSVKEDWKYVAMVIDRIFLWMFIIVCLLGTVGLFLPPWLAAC
Sequence (P12390 25-500): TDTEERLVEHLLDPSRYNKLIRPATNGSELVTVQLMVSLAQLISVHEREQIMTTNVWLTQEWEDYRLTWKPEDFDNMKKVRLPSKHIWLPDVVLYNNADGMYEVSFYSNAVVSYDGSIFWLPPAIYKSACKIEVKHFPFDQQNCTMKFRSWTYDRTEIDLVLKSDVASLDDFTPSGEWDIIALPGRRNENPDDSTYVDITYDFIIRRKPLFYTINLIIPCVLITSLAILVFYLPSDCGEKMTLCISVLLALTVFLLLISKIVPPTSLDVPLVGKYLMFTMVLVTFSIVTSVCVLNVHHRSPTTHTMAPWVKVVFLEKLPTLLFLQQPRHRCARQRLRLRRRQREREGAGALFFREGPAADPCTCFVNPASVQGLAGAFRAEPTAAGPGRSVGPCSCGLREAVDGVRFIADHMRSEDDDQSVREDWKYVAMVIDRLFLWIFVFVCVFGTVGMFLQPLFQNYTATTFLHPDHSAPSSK
procedure text: In vitro inhibition of 3H-cytisine binding
test conditions: rat cerebral cortex homogenate, 1 nM 3H-cytisine, 90 min at 2° C.; read-out: 3H-cytisine IC50
observable: IC50
Quote the value and follow it with the unit of measurement.

Q) Look up IC50 with nAChRs comprised of α4 and β2 subunits (Rattus norvegicus, UniProt P09483+P12390) for this molecule: CCCCOc1cncc(N2CCNCC2)c1
A) 180 nM

Q) Which IC50 is reported with nAChRs comprised of α4 and β2 subunits (Rattus norvegicus, UniProt P09483+P12390) for this entry: CCOc1cncc(N2CCNCC2)c1 ?
A) 500 nM

Q) Checklist item: IC50 tested on nAChRs comprised of α4 and β2 subunits (Rattus norvegicus, UniProt P09483+P12390), entry CCCCCCCOc1cncc(N2CCCN(C)CC2)c1 [Compound 16E] , value?
A) 280 nM

Q) Reported IC50 for nAChRs comprised of α4 and β2 subunits (Rattus norvegicus, UniProt P09483+P12390), given CCCCCCOc1cncc(N2CCCN(C)CC2)c1 [Compound 11E] ?
A) 800 nM

Q) Param readout= IC50; system= nAChRs comprised of α4 and β2 subunits (Rattus norvegicus, UniProt P09483+P12390); entry= CN1CCCN(c2cncc(OCC3CCCCC3)c2)CC1 [Compound 14E] ; returns value.
A) 200 nM

Q) Find IC50 (nAChRs comprised of α4 and β2 subunits (Rattus norvegicus, UniProt P09483+P12390)) for the entry Brc1ccc(N2CCCNCC2)cn1
A) 1 nM

Q) Short answer please: IC50, nAChRs comprised of α4 and β2 subunits (Rattus norvegicus, UniProt P09483+P12390), entry CN1CCCN(c2cncc(SCc3ccccc3)c2)CC1 [Compound 18E]
A) 600 nM

Q) # query: IC50 | item Clc1cncc(N2CCNCC2)c1 | system: nAChRs comprised of α4 and β2 subunits (Rattus norvegicus, UniProt P09483+P12390)
A) 310 nM

Q) Query the reported IC50 for nAChRs comprised of α4 and β2 subunits (Rattus norvegicus, UniProt P09483+P12390); item: COc1cncc(N2CCNCC2)c1
A) 800 nM

Q) Write down the reported IC50 of c1ccc(-c2cncc(N3CCCNCC3)c2)cc1 , test system: nAChRs comprised of α4 and β2 subunits (Rattus norvegicus, UniProt P09483+P12390).
A) 3 nM

Q) What IC50 appears in the records for this molecule with nAChRs comprised of α4 and β2 subunits (Rattus norvegicus, UniProt P09483+P12390)? c1ccc2nc(N3CCCNCC3)cnc2c1
A) 260 nM

Q) Look up IC50 with nAChRs comprised of α4 and β2 subunits (Rattus norvegicus, UniProt P09483+P12390) for this molecule: FC(F)(F)c1cncc(N2CCCNCC2)c1
A) 9 nM

Q) Fill in the recorded IC50 for this molecule, with nAChRs comprised of α4 and β2 subunits (Rattus norvegicus, UniProt P09483+P12390) as test system: CN1CCCN(c2cnc3ccccc3c2)CC1
A) 340 nM

Q) Query for nAChRs comprised of α4 and β2 subunits (Rattus norvegicus, UniProt P09483+P12390): what IC50 does the record show for CN1CCCN(c2cccnc2)CC1 ?
A) 150 nM

Q) Given the entry CN1CCCN(c2cncc(-c3cccnc3)c2)CC1 [Compound 19E] , what IC50 was observed with nAChRs comprised of α4 and β2 subunits (Rattus norvegicus, UniProt P09483+P12390)?
A) 170 nM

Q) # query: IC50 | item CN1CCCN(c2cncc(-c3ccccc3)c2)CC1 | system: nAChRs comprised of α4 and β2 subunits (Rattus norvegicus, UniProt P09483+P12390)
A) 200 nM

Q) // lookup IC50 | system=nAChRs comprised of α4 and β2 subunits (Rattus norvegicus, UniProt P09483+P12390) | key= Clc1ccc(N2CCCCNCC2)nn1
A) 550 nM

Q) Lab request: please report IC50 under test system nAChRs comprised of α4 and β2 subunits (Rattus norvegicus, UniProt P09483+P12390) for c1cncc(N2CCNCC2)c1
A) 130 nM

src = patent US6897219B2
